system: SK-MEL-2 melanoma; test: NCI-60 one-dose screen, 48 h; details: 10 µM
About 83,000 compounds went through this panel and 20% of them were active in at least one assay; those are over-represented in the sample as a whole. Active and inactive are the calls of the source. How the source made its calls: active means growth percent below 10; inactive means the rest.
Parameter call: string, one of 1 (yes) (active), 0 (no) (inactive)

Please review the entries below; each comes with its answer.
CCNCCCn1c2c(c3cc(OC)c(OC)cc3c1=O)C(=O)c1cc3c(nc1-2)OCO3 | 0 (no)
COc1cnc2c(c1)C(=O)c1c-2n(CCCNCCO)c(=O)c2cc(OC)c(OC)cc12 | 0 (no)
COc1ccc(NC(=O)Cn2c(/C=C/c3ccc(N(C)C)cc3)nc3ccccc3c2=O)cc1 | 0 (no)
CC1=C(c2cc(-c3ccc(Cl)cc3)c(C#N)c(N)n2)C(c2ccccc2)NC(=S)N1 (stereo unspecified) | 0 (no)
O=C1Nc2cc(Cl)ccc2/C1=C/c1cccc(OCc2ccccc2)c1 | 1 (yes)

**Query** Tell me the recorded outcome of this test for O=c1[nH]c2ccc(Cl)cc2cc1CSc1ccc(Nc2nccc(-c3ccc4ccccc4c3)n2)cc1 .
**Result** 0 (no)

**Query** For this compound, state the assay outcome: CC(=C(c1ccc(OCCCN(C)C)cc1)c1ccc(OCCCN(C)C)cc1)c1ccccc1
**Result** 1 (yes)

**Query** Hello, I am checking results. What call was entered for CN1CCc2c(sc3ncnc(N/N=C/c4cn(-c5ccccc5)nc4-c4ccc(Br)cc4)c23)C1 ?
**Result** 0 (no)

**Query** Please indicate how the test categorized CC1(C)[C@@H](NCO)CC[C@]2(C)[C@H]3C(=O)C=C4[C@@H]5C[C@](C)(CO)CC[C@]5(C)CC[C@@]4(C)[C@]3(C)CC[C@@H]12 .
**Result** 0 (no)

**Query** Outcome logged for Cc1ccc(/C=C/C(=O)c2ccc(NC(=O)CSc3nnc(-c4c[nH]c5ccccc45)n3-c3ccccc3)cc2)cc1 in this assay:
**Result** 0 (no)

**Query** So what was the verdict on C=C1CCC2C3(C)COC(c4c(F)cccc4F)OC3CCC2(C)C1CC(O)C1=CCOC1=O (stereo unspecified) in this test?
**Result** 0 (no)

**Query** Answer briefly: the call reported for COc1cccc2nc(Nc3ccc(F)c(NC(=O)c4ccc(CN5CCN(C)CC5)c(C(F)(F)F)c4)c3)ccc12 in this assay.
**Result** 0 (no)

* * *

Task for the reader: assign each of the following compounds its reported growth.
Test system: CAKI-1 renal
Experiment: NCI-60 one-dose screen, 48 h (100 = growth as untreated, 0 = no growth, -100 = all killed)
Details: 10 µM
Experimental: Growth inhibition of the CAKI-1 human tumor cell line is measured as a screen for anti-cancer activity. Cells are grown in 96 well plates and exposed to the test compound for 48 hours. Compounds are tested at a single concentration, which is 10^-5 M for most compounds. The reported endpoint is percent growth (GI% or GIPRCNT), where numbers from 0 - 100% represent growth inhibition, and numbers from -100% - 0 represent cell death. For example, a value of 40 represents 60% growth inhibition. […]
About 83,000 compounds went through this panel and 20% of them were active in at least one assay; those are over-represented in the sample as a whole.
Answers are plain numbers, in %.

These solved cases illustrate the format of a correct answer.
O=C(Cn1cc(CSc2nnc3oc4ccccc4n23)nn1)Nc1cccc(Cl)c1 | 59.8
COc1cc(Cn2c(C(F)(F)F)cc3c(Cl)ncnc32)ccn1 | -57.6
COc1cnc2c(c1)C(=O)c1c-2n(CCCNC(C)C)c(=O)c2cc(OC)c(OC)cc12 | 15.2
O=C(CSc1nnc(-c2c[nH]c3ccccc23)n1-c1ccccc1)Nc1ccc(C(=O)/C=C/c2ccc(Cl)cc2)cc1 | 68.2
CN1CCN(c2ccc(C(=O)/C=C/c3cc(C(F)(F)F)ccc3Cl)cc2)CC1 | -95.2

List growth for every entry below, keeping the order given.
1. CN(CCO)c1oc(-c2ccccc2)nc1[P+](c1ccccc1)(c1ccccc1)c1ccccc1
2. O=c1[nH]c2ccccc2cc1CSc1ccc(Nc2nccc(-c3ccc(Cl)cc3)n2)cc1
3. CCOC(=O)c1c(CSc2ccccc2)n(C)c2cc(CN(C)C)c(O)c(CN(C)C)c12
4. CN1C(=O)N(C)C2SC(N/N=C/c3ccccc3)=NC21 (stereo not given)
5. COc1ccc(OC)c(-c2cc(-c3c[nH]c4ccccc34)nc(N)c2C#N)c1
6. CCCn1c(=O)c2[nH]c(-c3ccc(OCc4nc5ccc(C(F)(F)F)cc5[nH]4)cc3)nc2n(CCC)c1=O

**Result**
[59.7, -83.5, 57.8, 72.5, 7.28, 43.6]

I'm hoping you can list growth for every compound here, please.
1. COc1ccc(-c2ccc(/C=N/NC(=O)c3[nH]c4ccc(Br)cc4c3-c3ccccc3)o2)cc1
2. Cc1cc(C)nc(SCC(=O)Nc2ccc(S(N)(=O)=O)cc2)n1
3. CN(C)c1ccc(/C=C/c2nc3ccccc3c(=O)n2CC(=O)Nc2ccccc2)cc1

**Result**
1. 28.4
2. 96.5
3. 24.4

Give me growth for each of these compounds, listed below.
1. CN1C(=O)/C(=C/c2nccs2)SC1=S
2. COc1ccc2[nH]c(=O)c(CSc3nccc(-c4ccc(Cl)cc4)n3)cc2c1
3. COc1ccc2nc(Cl)c(-c3cc(-c4ccccc4)nc(=O)[nH]3)cc2c1

**Result**
1: 72.9; 2: -75.9; 3: 74.2

Batch: growth for all items listed.
1. COc1ccsc1/C=N/NC(=O)c1[nH]c2ccc(Br)cc2c1-c1ccccc1
2. Cc1cc2nc3c4ccccc4n(CCO)c3nc2cc1C
3. CN(C)CCNC(=O)OCCCCOc1cc(O)c2c(=O)cc(-c3ccccc3)oc2c1

**Result**
1: 3.46; 2: 55.4; 3: -39.1

* * *

Provide the recorded growth for the entries that follow.
test system: UACC-257 melanoma; test: NCI-60 one-dose screen, 48 h (100 = growth as untreated, 0 = no growth, -100 = all killed); details: 10 µM
This is part of a sample that, as a whole, favours compounds with a hit. Of some 83,000 tested, about 20% had one in any assay.
Answers are plain numbers, in %.

Examples with answers:
COC1=C[C@]23CCC(=O)N2CCc2cc4c(cc2[C@@H]3[C@@H]1OC(=O)CCCC(C)C)OCO4 | 78.9
O=C(CNc1nc(-c2ccccc2)cs1)Nc1ccc(Cl)cc1[N+](=O)[O-] | -17.2
O=C1Nc2cc(-c3ccc(NC(=O)c4cccs4)cc3)ccc2/C1=C/c1ccc[nH]1 | 75.2

Go through the list and state growth for each entry.
1. N#Cc1c(NC(=O)c2ccc(C(F)(F)F)c(Cl)c2)sc2c1CCC(=O)C2
2. N[C@@H](CSSC[C@H](N)C(=O)Nc1ccc(OCC2CCCC2)cc1)C(=O)Nc1ccc(OCC2CCCC2)cc1
3. O=C1Nc2ccc(Cl)cc2/C1=C/c1cccc(OCc2ccccn2)c1
4. Cc1noc2c(Cc3ccc([N+](=O)[O-])cc3)nn(CC(=O)N/N=C/c3ccc(Cl)cc3)c(=O)c12

**Result**
1: -23.3; 2: -96.1; 3: -0.118; 4: 81

Hi team, please reply with growth for each item in this list.
1. CCCCCCCCCCCCCCCCCCCC(=O)NCCc1c[nH]c2ccc(OC(=O)CCCC(=O)OCCOOCCOOCCOOCCOOCCOOCCOOCCOOCCOOCCOOCCOOCCOOCCOC)cc12
2. COc1ccc(NC(=O)CSc2nnc(-c3ccc4nc(-c5ccc(Cl)cc5)[nH]c4c3)o2)cc1

**Result**
92.5
71.5

* * *

So I've got a bunch of compounds here, and I need their growth values.
system: SF-539 CNS; experiment: NCI-60 one-dose screen, 48 h (100 = growth as untreated, 0 = no growth, -100 = all killed); details: 10 µM
This is part of a sample that, as a whole, favours compounds with a hit. Of some 83,000 tested, about 20% had one in any assay.
Give bare numbers, in %.

O=c1[nH]c2ccc(Cl)cc2cc1CSc1ccc(Nc2nccc(-c3ccc4ccccc4c3)n2)cc1 | 94.1
NS(=O)(=O)c1ccc(NC(=O)CSc2ccc(-c3ccc(Cl)cc3)nn2)c(Br)c1 | 28.4
COc1ccc2[nH]c(=O)c(CSc3ccc(Nc4nccc(-c5ccc(Cl)cc5)n4)cc3)cc2c1 | -41
COc1ccc(-c2ccc(/C=N/NC(=O)c3[nH]c4ccc(Br)cc4c3-c3ccccc3)s2)cc1 | 71.7
COc1ccc(C(=O)CSc2nnc(-c3c[nH]c4ccccc34)n2-c2ccccc2)cc1 | 28.5
CCOc1ccc(/C=N/NC(=O)Cn2nc(Cc3ccc([N+](=O)[O-])cc3)c3onc(C)c3c2=O)cc1 | -64.5
COc1cc2oc(-c3cccc(C(=O)Nc4ccc(Cl)cc4)c3)cc(=O)c2c(OCCNC(=O)CNC(=O)OC(C)(C)C)c1OC | 67.3
COc1cc(C2CC(c3ccc(C)cc3)=Nc3c(N)nc(N)nc3N2)ccc1Oc1nc(Nc2ccc(F)cc2)nc(N(C)C)n1 (stereo not given) | 72.9
CC(=O)Nc1ccc(-c2cn(-c3cccc(C(=O)Nc4cccc(OC(F)(F)F)c4)c3)nn2)cn1 | 84.3
CCCn1c(=O)c2[nH]c(-c3ccc(OCc4nc5ccc(C(F)(F)F)cc5[nH]4)cc3)nc2n(CCC)c1=O | 1.94

Batch request: growth for each of the following compounds.
1. CN(C)c1ccc(/C=C/C(=O)c2ccc(NC(=O)CN3C(=O)NC(C)(c4ccccc4)C3=O)cc2)cc1 (stereo not given)
2. COc1ccc2[nH]c(O)c(N=NC(=O)c3cc(-c4ccc(C)cc4)nc4ccccc34)c2c1
3. CC(=O)Nc1ccc(-c2cn(-c3cccc(C(=O)Nc4ccc(Cl)c(C(F)(F)F)c4)c3)nn2)cn1
4. CCN1CCN(c2ccc(NC(=O)Nc3ccc(-c4cc(C(=O)NC(C)C)c5ncccc5n4)cc3)cc2C(F)(F)F)CC1
5. O=C(COc1ccc(NC(=O)Nc2ccc(Cl)cc2)cc1)N=Nc1c(O)[nH]c2ccc([N+](=O)[O-])cc12
6. O=C1Nc2ccc(Cl)cc2/C1=C/c1ccc(OCc2ccccn2)cc1
7. CN1C(=O)N(C)C2SC(N/N=C/c3ccccc3)=NC21 (stereo not given)
8. Cc1ccn2c(C(=O)c3ccc(Br)cc3)cc(-c3cc(-c4ccc(N(C)C)cc4)c(C#N)c(N)n3)c2c1

**Result**
55.2
92.3
-97.4
-98.9
16.5
73.5
64.5
24.2

Respectfully, I request growth for each entry included below.
1. O=C(CSc1nnc(-c2c[nH]c3ccccc23)n1-c1ccccc1)c1ccccc1
2. CC1(c2ccccc2)NC(=O)N(CC(=O)Nc2ccc(C(=O)/C=C/c3ccc(Br)cc3)cc2)C1=O (stereo not given)
3. COc1ccc(NC(=O)Cn2c(/C=C/c3ccc(N(C)C)cc3)nc3ccccc3c2=O)cc1
4. O=C1c2ccccc2C(=O)c2c1c(C(=O)c1ccc(Cl)cc1)n1c2ccc2c3ccccc3ccc21

**Result**
1: 7.59; 2: 39.9; 3: -60.2; 4: 88.5
